Cited source for all entries: ChEMBL document CHEMBL1641562

test: Inhibition of beta-lactamase TEM-1
In this section, each of the molecules is paired with its reported IC50.

{"columns": ["structure smiles string", "IC50"],
 "data": [
  ["CC1(C)[C@H](C(=O)O)N2C(=O)[C@@H](NS(=O)(=O)C(F)(F)F)[C@H]2S1(=O)=O", "> 50 µM"],
  ["CC1(C)[C@H](C(=O)O)N2C(=O)[C@@H](CC(=O)NO)[C@H]2S1(=O)=O", "> 50 µM"],
  ["CC1(C)[C@H](C(=O)O)N2C(=O)[C@@H](NCC(=O)O)[C@H]2S1(=O)=O", "> 50 µM"]
]}
